Target: Histone-lysine N-methyltransferase EHMT2 (Homo sapiens)
Sequence (Q96KQ7 whole entry, the tested form may be a part): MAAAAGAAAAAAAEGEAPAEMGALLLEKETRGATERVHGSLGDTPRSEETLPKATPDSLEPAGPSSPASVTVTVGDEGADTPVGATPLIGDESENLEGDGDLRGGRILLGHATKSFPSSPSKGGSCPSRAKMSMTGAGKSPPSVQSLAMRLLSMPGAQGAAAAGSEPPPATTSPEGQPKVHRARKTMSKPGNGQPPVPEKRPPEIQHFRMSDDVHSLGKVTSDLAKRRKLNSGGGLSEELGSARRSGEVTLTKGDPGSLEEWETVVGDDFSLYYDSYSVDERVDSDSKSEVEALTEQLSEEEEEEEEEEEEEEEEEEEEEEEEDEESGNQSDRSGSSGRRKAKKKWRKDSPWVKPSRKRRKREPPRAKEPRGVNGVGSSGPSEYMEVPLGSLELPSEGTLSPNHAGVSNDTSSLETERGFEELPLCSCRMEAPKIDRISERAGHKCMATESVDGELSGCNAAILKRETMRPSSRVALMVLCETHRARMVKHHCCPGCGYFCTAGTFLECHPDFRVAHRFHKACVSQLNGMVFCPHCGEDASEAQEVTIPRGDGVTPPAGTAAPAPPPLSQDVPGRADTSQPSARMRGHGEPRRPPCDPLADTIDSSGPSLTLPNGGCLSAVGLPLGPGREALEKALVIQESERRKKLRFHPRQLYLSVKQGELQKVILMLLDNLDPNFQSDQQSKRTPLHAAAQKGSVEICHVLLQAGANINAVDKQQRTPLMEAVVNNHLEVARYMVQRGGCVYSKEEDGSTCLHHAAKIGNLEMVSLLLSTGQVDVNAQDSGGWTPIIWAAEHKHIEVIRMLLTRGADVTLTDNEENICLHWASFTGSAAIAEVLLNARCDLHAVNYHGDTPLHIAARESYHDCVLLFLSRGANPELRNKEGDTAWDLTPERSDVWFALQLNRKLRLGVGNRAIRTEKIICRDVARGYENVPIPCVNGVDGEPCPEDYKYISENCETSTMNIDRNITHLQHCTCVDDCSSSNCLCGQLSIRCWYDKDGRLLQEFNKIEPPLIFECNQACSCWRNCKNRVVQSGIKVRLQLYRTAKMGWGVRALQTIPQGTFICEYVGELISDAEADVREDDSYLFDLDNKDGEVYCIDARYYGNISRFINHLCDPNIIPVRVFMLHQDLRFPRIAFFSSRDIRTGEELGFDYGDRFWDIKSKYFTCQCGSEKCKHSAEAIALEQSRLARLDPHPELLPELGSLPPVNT
Assay: Binding affinity to recombinant G9a catalytic SET domain (913 to 1193 residues) (unknown origin) expressed in Escherichia coli BL21 (DE3) codon plus RIL in presence of SAM by isothermal titration calorimetry
propertyMeasured: pKd
Answers are plain numbers, as −log10 of the molar value.

COc1cc2nc(N3CCOCC3)nc(NC3CCN(C)CC3)c2cc1OC :: 6.35

Request: What does the data say about its pKd? Entry: CCCCCCNc1nc(NC2CCN(C)CC2)c2cc(OC)c(OC)cc2n1
Response: 6.21

---

Answer each item with its documented pIC50.
Biological target: Histone-lysine N-methyltransferase EHMT1 (Homo sapiens, UniProt Q9H9B1)
Sequence (Q9H9B1 whole entry): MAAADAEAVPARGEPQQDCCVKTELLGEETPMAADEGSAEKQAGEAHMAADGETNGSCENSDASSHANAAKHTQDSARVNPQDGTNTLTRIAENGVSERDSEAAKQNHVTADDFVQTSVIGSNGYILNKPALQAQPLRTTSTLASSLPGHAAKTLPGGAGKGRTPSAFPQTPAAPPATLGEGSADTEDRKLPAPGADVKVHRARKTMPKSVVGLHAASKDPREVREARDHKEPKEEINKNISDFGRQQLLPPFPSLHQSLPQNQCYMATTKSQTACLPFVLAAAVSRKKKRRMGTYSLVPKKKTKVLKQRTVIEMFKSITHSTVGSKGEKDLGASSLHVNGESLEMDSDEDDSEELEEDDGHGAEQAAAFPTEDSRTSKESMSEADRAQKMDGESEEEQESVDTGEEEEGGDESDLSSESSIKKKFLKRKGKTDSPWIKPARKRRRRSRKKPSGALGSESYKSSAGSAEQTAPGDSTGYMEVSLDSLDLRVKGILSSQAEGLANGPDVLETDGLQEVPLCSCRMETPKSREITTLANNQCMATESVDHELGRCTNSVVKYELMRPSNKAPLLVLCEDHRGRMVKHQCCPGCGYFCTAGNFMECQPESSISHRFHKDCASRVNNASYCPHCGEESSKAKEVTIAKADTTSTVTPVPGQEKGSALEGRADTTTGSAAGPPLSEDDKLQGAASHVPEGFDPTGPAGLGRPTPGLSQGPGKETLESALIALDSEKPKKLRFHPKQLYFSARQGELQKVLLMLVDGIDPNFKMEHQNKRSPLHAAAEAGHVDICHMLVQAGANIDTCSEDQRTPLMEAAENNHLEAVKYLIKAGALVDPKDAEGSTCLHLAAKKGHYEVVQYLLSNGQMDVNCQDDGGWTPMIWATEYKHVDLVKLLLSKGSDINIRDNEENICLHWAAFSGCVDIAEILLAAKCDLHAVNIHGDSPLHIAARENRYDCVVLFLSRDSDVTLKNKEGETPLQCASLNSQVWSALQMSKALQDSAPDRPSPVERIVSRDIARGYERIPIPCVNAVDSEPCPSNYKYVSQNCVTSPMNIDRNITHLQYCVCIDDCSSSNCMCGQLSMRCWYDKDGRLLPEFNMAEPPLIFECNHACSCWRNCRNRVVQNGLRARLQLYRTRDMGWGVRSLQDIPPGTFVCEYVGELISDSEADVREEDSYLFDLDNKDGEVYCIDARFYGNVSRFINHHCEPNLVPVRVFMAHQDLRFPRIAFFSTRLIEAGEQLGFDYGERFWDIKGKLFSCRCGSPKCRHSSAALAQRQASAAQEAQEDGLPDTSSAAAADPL
Experiment: Inhibition of recombinant GLP catalytic SET domain (982 to 1266 residues) (unknown origin) expressed in Escherichia coli BL21 (DE3) codon plus RIL assessed as inhibition of methylation activity using biotin-labeled H3 (1 to 25 residues) as substrate and [3H]-SAM after 2 hrs by scintillation proximity assay
Numbers only, as −log10 of the molar value.

Below, each entry is followed by its recorded pIC50 result.
COc1cc2nc(N3CCOCC3)nc(NC3CCN(C)CC3)c2cc1F :: 5.91
COc1cc2nc(N3CCOCC3)nc(NC3CCN(C)CC3)c2cc1C :: 6.09
CCCCCCCNc1nc(NC2CCN(C)CC2)c2cc(OC)c(OC)cc2n1 :: 7.36
COc1cc2nc(N3CCCCCC3)nc(NC3CCN(C)CC3)c2cc1OC :: 7.80
COc1cc2nc(N3CCOCC3)nc(NC3CCN(C(C)C)CC3)c2cc1OC :: 7.82

Pending compound:
Request: Any idea what its pIC50 is? The compound is COc1cc2nc(N3CCCC3)nc(NC3CCN(C)CC3)c2cc1OC
Response: 7.92
